Biological target: PD-L1 protein on the surface of MC38-hPDL1 tumor cells (Homo sapiens)
Construct: expressed in transfected cells; host or cells: MC38-hPDL1 (mouse colon cancer cells)
Sequence (Q9NZQ7 19-290): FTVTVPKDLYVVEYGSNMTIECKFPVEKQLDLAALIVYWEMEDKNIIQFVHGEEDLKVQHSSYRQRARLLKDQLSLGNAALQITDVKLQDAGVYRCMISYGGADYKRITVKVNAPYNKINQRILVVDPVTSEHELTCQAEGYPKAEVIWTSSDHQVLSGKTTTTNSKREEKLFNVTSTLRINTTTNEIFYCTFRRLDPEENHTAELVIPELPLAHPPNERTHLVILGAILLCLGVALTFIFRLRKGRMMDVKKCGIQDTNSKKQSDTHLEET
Experiment: Induction of endocytosis of PD-L1 on the surface of tumor cells (flow cytometry)
Format: cell-based
Settings: MC38-hPDL1 cells, 16 hours incubation; read-out: MC38 maximum endocytosis rate
endpoint name: Emax (%)
Respond with the bare value in %.

# count of solved cases: 4
[
  {
    "smiles": "COc1nc(-c2cccc(-c3cccc(NC(=O)c4nc5c(n4C)CCN(C)C5)c3Cl)c2Cl)ccc1CN1CCC(C#N)CC1",
    "Emax [%]": 95
  },
  {
    "smiles": "COc1nc(-c2cccc(-c3cccc(NC(=O)c4nc5c(n4C)CCN(C)C5)c3Cl)c2Cl)ccc1CN1CC2(COC2)C1",
    "Emax [%]": 96
  },
  {
    "smiles": "COc1nc(-c2cccc(-c3cccc(NC(=O)c4nc5c(n4C)CCN(C)C5)c3Cl)c2Cl)ccc1CN[C@@H]1CCCC[C@@H]1O",
    "Emax [%]": 97
  },
  {
    "smiles": "COc1cc(-c2cccc(-c3cccc(NC(=O)c4nc5c(n4C)CCN(C)C5)c3Cl)c2C)ncc1CNC1CCOCC1",
    "Emax [%]": 85
  }
]

Reported Emax, molecule COc1nc(-c2cccc(-c3cccc(NC(=O)c4nc5c(n4C)CCN(C)C5)c3Cl)c2Cl)cnc1CN1CC(F)C1 : ____
96

Query: Emax; subject: CNC(=O)C1CN(Cc2ccc(-c3cccc(-c4cccc(NC(=O)c5nc6c(n5C)CCN(C)C6)c4Cl)c3Cl)nc2OC)C1
96

So what's the measured Emax for this one? COc1nc(-c2cccc(-c3cccc(NC(=O)c4nc5c(n4C)CCN(C)C5)c3Cl)c2Cl)ccc1CN1C2CC1CN(C(=O)C(C)C)C2
88

# input molecule: COc1cc(C(=O)Nc2cccc(-c3cccc(NC(=O)c4nc5c(n4C)CCN(C)C5)c3Cl)c2C)ncc1CNC1(C)COC1 ; wanted: its Emax
91

Recorded Emax of COc1nc(-c2cccc(-c3cccc(NC(=O)c4nc5c(n4C)CCN(C)C5)c3Cl)c2Cl)ccc1CNC[C@H](C)O , please.
97

Could you share which Emax value was measured for COc1nc(-c2cccc(-c3cccc(NC(=O)c4nc5c(n4C)CCN(C)C5)c3Cl)c2Cl)ccc1CN1CC(CC#N)C1 ?
97

Looking for the measured Emax of COc1nc(-c2cccc(-c3cccc(NC(=O)c4nc5c(n4C)CCN(C)C5)c3Cl)c2Cl)ccc1CN1CC(NC(C)=O)C1 , can you help?
96

Suppose we examine the molecule COc1cc(-c2cccc(-c3cccc(NC(=O)c4nc5c(n4C)CCN(C)C5)c3Cl)c2Cl)ncc1CNC[C@@H]1CCC(=O)N1 ; what Emax value has been reported?
91

Name the recorded Emax for COc1nc(-c2cccc(-c3cccc(NC(=O)c4nc5c(n4C)CCN(C)C5)c3Cl)c2Cl)cnc1CN1CC(NC(C)=O)C1 .
95

// Emax lookup, key: COc1nc(-c2cccc(-c3cccc(NC(=O)c4nc5c(n4C)CCN(C)C5)c3Cl)c2Cl)ccc1CN1CCN(C(=O)C2CC2)CC1
95

Look up Emax: COc1cc(C(=O)Nc2cccc(-c3cccc(NC(=O)c4nc5c(n4C)CCN(C)C5)c3Cl)c2C)ncc1CN[C@@H]1CCOC[C@@H]1F
94

GET /values?readout=Emax&item= COc1nc(-c2cccc(-c3cccc(NC(=O)c4nc5c(n4C)CCN(C)C5)c3Cl)c2Cl)ccc1CN1CCC(C)(C#N)CC1
94

Which value of Emax has been reported for C=CCNCc1cnc(C(=O)Nc2cccc(-c3cccc(NC(=O)c4nc5c(n4C)CCN(C)C5)c3Cl)c2C)cc1OC in the records?
90

What value of measured Emax is listed for COc1nc(-c2cccc(-c3cccc(NC(=O)c4nc5c(n4C)CCN(C)C5)c3Cl)c2Cl)ccc1CN1CC2(C1)CN(C(=O)C(C)C)C2 ?
96

Bench note: what Emax did COc1cc(-c2cccc(-c3cccc(NC(=O)c4nc5c(n4C)CCN(C)C5)c3Cl)c2C)ncc1CNC[C@@H]1CCC(=O)N1 show?
94

* * *

Target: human PD-L1 protein (Homo sapiens, UniProt Q9NZQ7)
Construct: purchased Acro Biosystems PD1-H5229
Experiment: Thermal shift: melting temperature of PD-L1 protein
Format: binding
Conditions: compound 10 μM, PD-L1 protein 2 μM, Tm minus DMSO vehicle control; read-out: ΔTm (° C.)
The molecules listed here are annotated with their ΔTm at 10 µM.
Answer with a number only, understood to be in °C.

Solved cases below.
[
  {
    "molecule": "COc1nc(-c2cccc(-c3cccc(NC(=O)c4nc5c(n4C)CCN(C)C5)c3Cl)c2Cl)ccc1CN1CC2(C1)CN(C(=O)C(F)F)C2 [Embodiment 190]",
    "measurement unit": "°C",
    "ΔTm at 10 µM": 14
  },
  {
    "molecule": "COc1nc(-c2cccc(-c3cccc(NC(=O)c4nc5c(n4C)CCN(C)C5)c3Cl)c2Cl)ccc1CN1CC2(CCC(=O)N2)C1 [Embodiment 126]",
    "measurement unit": "°C",
    "ΔTm at 10 µM": 17.1
  },
  {
    "molecule": "COc1nc(-c2cccc(-c3cccc(NC(=O)c4nc5c(n4C4CC4)CCN(C)C5)c3Cl)c2Cl)ccc1CN1CC2(CC(NC(C)=O)C2)C1 [Embodiment 246]",
    "measurement unit": "°C",
    "ΔTm at 10 µM": 11
  },
  {
    "molecule": "COc1nc(-c2cccc(-c3cccc(NC(=O)c4nc5c(n4C)CCN(C)C5)c3Cl)c2Cl)ccc1CN1CC2(CCN(C(C)=O)CC2)C1 [Embodiment 194]",
    "measurement unit": "°C",
    "ΔTm at 10 µM": 13.2
  },
  {
    "molecule": "COc1cc(C(=O)Nc2cccc(-c3cccc(NC(=O)c4nc5c(n4C)CCN(C)C5)c3Cl)c2C)ncc1CNC1(C(=O)O)COC1 [Embodiment 102]",
    "measurement unit": "°C",
    "ΔTm at 10 µM": 10.8
  },
  {
    "molecule": "COc1cc(C(=O)Nc2cccc(-c3cccc(NC(=O)c4nc5c(n4C)CCN(C)C5)c3Cl)c2C)ncc1CNc1ccnc(C)n1 [Embodiment 90]",
    "measurement unit": "°C",
    "ΔTm at 10 µM": 11
  }
]

I have this molecule here, CCn1c(C(=O)Nc2cccc(-c3cccc(-c4ccc(CN5CC(CO)C5)c(OC)n4)c3Cl)c2Cl)nc2c1CCN(C)C2 [Embodiment 239] , and I need its recorded ΔTm at 10 µM.
11.9

Tell me the measured ΔTm at 10 µM of COc1nc(-c2cccc(-c3cccc(NC(=O)c4nc5c(n4C)CCN(C)C5)c3Cl)c2Cl)ccc1CN1CC2(CCN(C(C)=O)C2)C1 [Embodiment 195] , please.
14.5

* * *

ΔTm at 10 µM overview
Target: human PD-L1 protein (Homo sapiens)
Construct: purchased Acro Biosystems PD1-H5229
Assay: Thermal shift: melting temperature of PD-L1 protein
Assay type: binding
Conditions: compound 10 μM, PD-L1 protein 2 μM, Tm minus DMSO vehicle control; read-out: ΔTm (° C.)
Procedure: Test Embodiment 4. Test of Combination of the Compounds of the Present Disclosure to Improve the Stability (Melting Temperature) of PD-L1 Protein Experimental purpose: To test the ability of compounds to enhance the stability of PD-L1 protein and increase the melting temperature of the protein. Experimental method: […] A solution containing […] HEPES, SYPRO Orange, and 150 mM NaCl was prepared as experimental buffer, and human PD-L1 protein was added at a final concentration of 2 μM. […]
Expressed in °C, but write only the number.

Known results for compounds:
[
  {
    "smiles": "COc1nc(-c2cccc(-c3cccc(NC(=O)c4nc5c(n4C)CCN(C)C5)c3Cl)c2Cl)ccc1CN1CC(CC#N)C1",
    "measurement unit": "°C",
    "ΔTm at 10 µM": 16.3
  },
  {
    "smiles": "COc1nc(-c2cccc(-c3cccc(NC(=O)c4nc5c(n4C)CCN(C)C5)c3Cl)c2Cl)ccc1CN1CC(C(=O)O)C1",
    "measurement unit": "°C",
    "ΔTm at 10 µM": 16.7
  },
  {
    "smiles": "COc1nc(-c2cccc(-c3cccc(NC(=O)c4nc5c(n4C)CCN(C)C5)c3Cl)c2Cl)ncc1CN1CC(CO)C1",
    "measurement unit": "°C",
    "ΔTm at 10 µM": 12.3
  },
  {
    "smiles": "CCC(=O)N1CCN(Cc2ccc(-c3cccc(-c4cccc(NC(=O)c5nc6c(n5C)CCN(C)C6)c4Cl)c3Cl)nc2OC)CC1",
    "measurement unit": "°C",
    "ΔTm at 10 µM": 12.1
  },
  {
    "smiles": "COc1nc(-c2cccc(-c3cccc(NC(=O)c4nc5c(n4C)CCN(C)C5)c3Cl)c2Cl)ccc1CNC1CN(C(C)=O)C1",
    "measurement unit": "°C",
    "ΔTm at 10 µM": 12.3
  }
]

Then there is this compound:
GET /values?readout=ΔTm at 10 µM&item= COc1nc(-c2cccc(-c3cccc(NC(=O)c4nc5c(n4C)CCN(C)C5)c3Cl)c2Cl)ccc1CNC[C@@H](C)O
16.8
